# Tested on: NCI-H23 lung
# ASSAY SUMMARY: NCI-60 one-dose screen, 48 h
# SETUP CONDITIONS: 10 µM unless noted
Compounds without any hit were thinned out: in the full panel of roughly 83,000, 20% have a hit. Active and inactive are the calls of the source. How the source made its calls: active means growth percent below 10; inactive means the rest.
Please reply with one of these outcomes: active, inactive

Example cases with answers are listed next.
- COMPOUND: "C#Cc1ccccc1NC(=O)c1sc2nc3c(cc2c1N)CCCCCC3"
  LABEL: "inactive"
- COMPOUND: "CCOC(=O)c1c(C)nc2c(c1N)/C(=C/c1ccccn1)C(=O)N2Cc1ccccc1"
  LABEL: "inactive"
- COMPOUND: "O=C(Nc1nccs1)c1noc2ccccc12"
  LABEL: "inactive"
- COMPOUND: "CN(C)C(CNc1oc(-c2cccc3ccccc23)nc1C#N)c1ccco1 (centres undefined)"
  LABEL: "inactive"
- COMPOUND: "Cc1c(Cl)cccc1NC(=O)c1sc2nc3c(cc2c1N)CCCCCC3"
  LABEL: "inactive"
- COMPOUND: "COC(=O)/C=C1\\SC(=Nc2cccc(OC)c2)N(CCc2c[nH]c3ccccc23)C1=O"
  LABEL: "inactive"

How was `CNc1cccc2c1C(=O)c1cccc(N)c1C2=O` classified in this test? inactive

Now give it for `COc1ccc2c(c1)OC13Oc4cc(OC)ccc4C=C1CCCCC3=C2` too. inactive

Now give it for `O=C(CN1N=C(c2ccc(F)cc2)CCC1=O)Nc1nc2ccccc2s1` too. active

Now give it for `C=C1C(=O)O[C@H]2[C@H]1CC/C(COC(=O)NCC(=O)Nc1ccc(OC)c(C(N)=O)c1O)=C\CC[C@@]1(C)O[C@@H]21` too. inactive

Now give it for `COc1ccc(C(=O)c2cc(F)c(F)c(OC)c2F)cc1OC(=O)CCl` too. inactive

Now give it for `C#C[C@@]1(O)[C@@H](CO)O[C@@H](n2cnc3c(-c4ccccc4)ncnc32)[C@@H]1O` too. inactive
